# TEST TARGET: Recombinant SR (serine racemase) (Homo sapiens, UniProt Q9GZT4)
# Construct: made in house; host or cells: Escherichia coli
# Sequence (Q9GZT4 whole entry): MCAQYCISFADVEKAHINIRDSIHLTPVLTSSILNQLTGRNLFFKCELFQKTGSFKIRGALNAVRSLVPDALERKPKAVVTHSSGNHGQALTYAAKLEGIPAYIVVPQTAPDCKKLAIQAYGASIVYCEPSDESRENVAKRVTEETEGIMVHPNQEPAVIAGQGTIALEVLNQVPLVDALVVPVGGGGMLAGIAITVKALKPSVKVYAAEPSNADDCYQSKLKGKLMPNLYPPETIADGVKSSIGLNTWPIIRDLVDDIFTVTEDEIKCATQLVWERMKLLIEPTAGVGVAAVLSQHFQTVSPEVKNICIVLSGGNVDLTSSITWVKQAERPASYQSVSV
# PROTOCOL DETAILS: Serine racemase (SR) enzyme activity measurement: L-serine racemization reaction, D-serine quantified via Dsd1/DNP colorimetry
# Assay type: biochemical
# MEASUREMENT CONDITIONS: compound 0.3 mM (footnote ‡); value in parentheses = malonic acid (control) in the same run
Assignment: determine reported % human (0. 3 mM) for the given molecules.
// return numeric value only (unit: %, not printed)

Prompt: Look up % human (0. 3 mM) for this molecule: "O=C(Nc1ccc(Cl)c(Cl)c1)Nc1ccccc1NS(=O)(=O)c1ccc(Br)cc1"
Completion: 48

Prompt: For the molecule shown here, "Cc1ccc(/C=C/S(=O)(=O)Nc2ccccc2NC(=O)Nc2ccc(Cl)c(Cl)c2)cc1" , give the reported % human (0. 3 mM).
Completion: 48

Prompt: Item under review: "O=C(Nc1ccc(Cl)cc1Cl)Nc1ccccc1NS(=O)(=O)c1ccc(Cl)cc1" . Reported % human (0. 3 mM)?
Completion: 46

Prompt: Fill blank: measured % human (0. 3 mM) of the molecule "COc1ccc(S(=O)(=O)Nc2ccccc2NC(=O)Nc2ccc(Cl)c(Cl)c2)cc1" is ____.
Completion: 58

Prompt: Field request: % human (0. 3 mM) | item: O=C(O)CC(=O)O [malonic acid, reference compound]
Completion: 51
